Here the recorded normalized growth is given for each entry.
# ASSAY METHOD TEXT: chemical genetic growth profiling, strain panel (AID 1159580);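 note: tested at 20 µM; growth read once vehicle control cultures reached saturation at 30 °C; 1 = growth at the plate median or of vehicle wells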
# COND: S. cerevisiae deletion strains, growth OD, locus YHR205W, strain SCH9, hits give low values
Among all 5,500 compounds or so, about 2,000 (36%) were called active. Inconclusive results (about 18%) are left out. Some of the results follow.
Reply: number alone, nothing else.

Quote normalized growth reported for `Clc1cc(Cl)cc(C=NCc2ccccc2)c1` please.
0.621

Name the recorded normalized growth of the item `COc1ccc(-c2cn3cc(C)ccc3n2)cc1` in your answer.
0.963

Note normalized growth for the molecule shown: `O=S(=O)(NCc1cc(Cl)cc(Cl)c1)c1cc(C(F)(F)F)cc(C(F)(F)F)c1`
0.908

Identify measured normalized growth associated with `COc1ccc(-c2csc(-c3cccnc3)n2)cc1`
0.955

====

# ASSAY METHOD TEXT: chemical genetic growth profiling, strain panel (AID 1159580)
# COND: S. cerevisiae deletion strains, growth OD, locus YJL095W, strain BCK1
About 2,000 (36%) of roughly 5,500 compounds were called active. About 18% were inconclusive and are not listed. No stated cut-off is given here; in the data, active means normalized growth mostly below about 0.91 (no sharp cut-off); inconclusive means no clear call, values can overlap the other calls; inactive means mostly above about 0.92. This is one part of the list.
Can you answer with just one of these options? active, inactive

Reference set, count: 5
> print(dat)
                                   compound  classification
1  Clc1ccc(C(Cn2ccnc2)OCc2ccsc2Cl)c(Cl)c1 (centres undefined)          active
2  C/C(=N/NC(=S)NCC(C)(C)C)c1cc(F)cc(Cl)c1O        inactive
3  COc1ccc(-c2oc3cc(OC)c(OC)c(OC)c3c(=O)c2OC)cc1OC        inactive
4  COc1ccc(-c2oc3cc(OC)c(OC)c(OC)c3c(=O)c2OC)cc1        inactive
5      CN(C/C=C/C#CC(C)(C)C)Cc1cccc2ccccc12          active

Call for entry Cc1ncc([N+](=O)[O-])n1CC(O)CCl (centres undefined) :
inactive

Given `C[C@H]1C[C@@H](O)[C@]2(O)[C@@]13CC(=O)OC[C@@]2(C)[C@](C)(O)C(=O)C3` , state the outcome it received in this test.
inactive

What did this assay record as the result for `Clc1ccc(Oc2ccnc3cc(Cl)ccc23)cc1` ?
active

What did the test return for `COc1ccc(-c2oc3ccccc3c(=O)c2OC)cc1` ?
inactive

====

# ASSAY METHOD TEXT: chemical genetic growth profiling, strain panel (AID 1159580)
# COND: S. cerevisiae deletion strains, growth OD, locus YDR101C, strain arx1, hits give low values
Hit rate of the full screen: of about 5,500 compounds, about 2,000 (36%) were called active. About 18% were inconclusive and are not listed. Some of the results follow.
Simple rule here: normalized growth less than 1 is rule met, otherwise rule not met.

Some solved entries appear below for comparison.
> print(dat)
                                   compound  classification
1  O=c1cccc2n1CC1CC2CN2CCCC[C@@H]12 (stereo not given in full)    rule not met
2  COc1c(C)c2c(c(O)c1C/C=C(\C)CCC(=O)O)C(=O)OC2        rule met

I wonder whether Clc1ccc(COC(Cn2ccnc2)c2ccc(Cl)cc2Cl)c(Cl)c1 (stereo not given) has normalized growth below 1. Can you tell?
rule met

====

# ASSAY METHOD TEXT: chemical genetic growth profiling, strain panel (AID 1159580);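 note: tested at 20 µM; growth read once vehicle control cultures reached saturation at 30 °C; 1 = growth at the plate median or of vehicle wells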
# COND: S. cerevisiae deletion strains, growth OD, locus YGL240W, strain doc1, hits give low values
About 2,000 (36%) of roughly 5,500 compounds were called active. Roughly 18% stayed inconclusive and do not appear here. The list shows a part of the results. Where a SMILES comes first, the peptide text is derived from it.
MEASURED ATTRIBUTE: normalized growth
Please give only the number in your answer, with no unit.

Here is how some compounds turned out for normalized growth.
COMPOUND	RESULT
C=C1C(=O)[C@]23[C@H](O)[C@H]1CC[C@H]2[C@@]12CO[C@]3(O)[C@H](O)[C@@H]1C(C)(C)CC[C@@H]2O	1.02
CC(=O)O[C@@H]1CC2C(C)(C)[C@H](O)C=C[C@]2(C)C2CC[C@@]3(C)[C@H](c4ccoc4)OC(=O)C4OC43[C@@]21C (stereo partly specified)	1.02
COc1cc(NS(C)(=O)=O)ccc1Cc1c2ccccc2nc2ccccc12	0.892
COC[C@]12CN(C=O)C3[C@@H]4[C@H](OC)C1[C@]3(C1CC3(O)C(OC)C(O)C4(OC(C)=O)C1C3OC(=O)c1ccccc1)[C@@H](OC)C[C@H]2O (stereo partly specified)	1.01

Give the reported value of normalized growth for this record: CC(=O)C1CC[C@H]2C3CC[C@H]4C[C@H](O)CC[C@]4(C)C3CC[C@]12C (stereo partly specified)
1.01

Please look at this compound and report its normalized growth: COc1ccc2c(c1)OCC(Cc1ccc(OC)c(OC)c1)C2=O (stereo unspecified)
0.898

Please report normalized growth for the following compound: `CC(O)(P(=O)(O)O)P(=O)(O)O`
0.982

Please indicate normalized growth recorded for CC12CCCCC1(Br)[N+](=O)N2[O-] (stereo unspecified)
0.992

Look up normalized growth of CC(=O)O[C@@H]1CC2C(C)(C)C(=O)C3OC3[C@]2(C)C2CC[C@@]3(C)[C@H](c4ccoc4)OC(=O)C4OC43[C@@]21C (stereo partly specified) and report it.
0.96

Supply reported normalized growth belonging to this compound: `Cc1onc(-c2ccccc2)c1-c1ccc(S(N)(=O)=O)cc1`
1.01

# return recorded normalized growth for input C[C@@H]1CC2C3CCC4=CC(=O)C=C[C@]4(C)[C@@]3(F)[C@@H](O)C[C@]2(C)[C@@]1(O)C(=O)CO (stereo partly specified)
0.966

Hello, please tell me recorded normalized growth for this one: CC(=O)O[C@H]1C[C@@H](OC(C)=O)C(C)(C)C2C[C@@H](OC(C)=O)[C@]3(C)C(CC[C@@]4(C)[C@H](c5ccoc5)OC(=O)[C@H]5O[C@]543)[C@]21C (stereo partly specified)
0.999

State its normalized growth: `CC(C)(S)[C@@H](N)C(=O)O`
1.01

Note down normalized growth recorded for `NC(N)=NCCN1CCCCCCC1`
1.02

Provide only the value of recorded normalized growth for CC(=O)O[C@H]1CC[C@@]2(C)C(C[C@@H](OC(C)=O)[C@]3(C)C2CC[C@@]2(C)[C@H](c4ccoc4)OC(=O)[C@H]4O[C@]423)C1(C)C (stereo partly specified)
0.978

Please give the documented normalized growth of CC1(C)C(=O)[C@@H]2O[C@@H]2[C@@]2(C)C1C[C@@H](O)[C@]1(C)C2CC[C@@]2(C)[C@H](c3ccoc3)OC(=O)C3OC321 (stereo partly specified)
1

Supply recorded normalized growth for CC(=O)N[C@@H](CC(=O)O)C(=O)N[C@@H](CCC(=O)O)C(=O)O (Ac-Asp-Glu-OH) here.
0.987

====

# ASSAY METHOD TEXT: chemical genetic growth profiling, strain panel (AID 1159580);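 note: tested at 20 µM; growth read once vehicle control cultures reached saturation at 30 °C; 1 = growth at the plate median or of vehicle wells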
# COND: S. cerevisiae deletion strains, growth OD, locus YAL026C, strain drs2
The campaign covered roughly 5,500 compounds. About 2,000 (36%) were called active. Roughly 18% stayed inconclusive and do not appear here. Cut-off read from the data, not from the text of the source: active = normalized growth mostly below about 0.91 (no sharp cut-off); inconclusive = no clear call, values can overlap the other calls; inactive = mostly above about 0.92. The list shows a part of the results.
Respond with a class label; see YES (active), NO (inactive)

Some entries whose results are on file:
COMPOUND	CLASSIFICATION
C=CCS(=O)C[C@H](N)C(=O)O (stereo partly specified)	NO
O=c1oc2ccccc2cc1O	NO
CC(C)(S)[C@@H](N)C(=O)O	NO

// outcome(item) with item = `O=C(O)[C@@H](S)[C@@H](S)C(=O)O`
YES

What was the test verdict on O=C(O)C(O)C(O)C(=O)O (stereo unspecified) ?
NO

Kindly provide the recorded test outcome for the following compound: `O=NN(CCCl)C(=O)NCCCl`
NO

# fetch the recorded call for `Cc1oncc1C(=O)Nc1ccc(C(F)(F)F)cc1` here
NO

Tell me the recorded outcome of this test for CC1OC(O[C@H]2/C=C/C=C/C=C/C=C/C=C/C=C/C=C/[C@H](C)[C@@H](O)[C@@H](C)[C@H](C)OC(=O)CC(O)CC(O)CCC(O)C(O)CC(O)C[C@]3(O)C[C@H](O)C(C(=O)O)C(C2)O3)C(O)[C@H](N)C1O (stereo partly specified) .
YES

Assay result, entry `N[C@@H](C(=O)O)[C@@H](O)[C@H](O)[C@H](O)CO` — outcome?
NO

Lab log entry: `COC(=O)[C@H](c1ccccc1Cl)N1CCc2sccc2C1` — outcome as called in the assay?
NO

Recorded test outcome, item `COc1cc(NS(C)(=O)=O)ccc1Cc1c2ccccc2nc2ccccc12`
NO

====

# ASSAY METHOD TEXT: chemical genetic growth profiling, strain panel (AID 1159580);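 note: tested at 20 µM; growth read once vehicle control cultures reached saturation at 30 °C; 1 = growth at the plate median or of vehicle wells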
# COND: S. cerevisiae deletion strains, growth OD, locus YGR078C, strain PAC10, hits give low values
The campaign covered roughly 5,500 compounds. About 2,000 (36%) were called active. Not shown: some 18% with an inconclusive outcome. Some of the results follow.
Hi! Just check whether normalized growth is below 1. Below gives YES, equal or above gives NO.

API: query returns whether the molecule falls strictly under 1 in normalized growth. Query: `O=C1CCCCC/C=C/CCCCCCCCO1`
YES

Is it true that normalized growth reported for Clc1ccc(COC(Cn2ccnc2)c2ccc(Cl)cc2Cl)c(Cl)c1 (configuration not stated) is less than 1?
YES

Find out if reported normalized growth for `NCCCCC(=O)O` is less than 1
NO

Source: PubChem BioAssay AID1159580
